Numbers sourced from ChEMBL document CHEMBL3600330.

# TEST_NAME: Selectivity ratio of CC50 for human PBMC to IC50 for promastigote form of Leishmania amazonensis
Returns one of satisfied or not satisfied; satisfied when Ratio CC50/IC50 is >= 7.

* O=C(OCC1CCN(Cc2ccc3c(c2)OCO3)CC1)c1ccc([N+](=O)[O-])cc1 | satisfied
* CCCCCCNC(=O)OCC1CCN(Cc2ccc3c(c2)OCO3)CC1 | not satisfied
* O=C(OCC1CCN(Cc2ccc3c(c2)OCO3)CC1)c1ccc2c(c1)OCO2 | satisfied
* O=C(OCC1CCN(Cc2ccc3c(c2)OCO3)CC1)c1ccc(F)cc1 | satisfied
* COc1ccc(C(=O)OCC2CCN(Cc3ccc4c(c3)OCO4)CC2)cc1OC | satisfied
* O=C(OCC1CCN(Cc2ccc3c(c2)OCO3)CC1)c1ccccc1 | not satisfied
* O=C(OCC1CCN(Cc2ccc3c(c2)OCO3)CC1)c1ccc(Br)cc1 | not satisfied
